Target: rod CNG channels (CNGA1:CNGB1a) (Bos taurus, UniProt Q00194+Q28181)
Construct: expressed in transfected cells; host or cells: Xenopus laevis oocytes (cRNA injection, pGEMHE vector); inside-out patches
Sequence (Q00194 whole entry): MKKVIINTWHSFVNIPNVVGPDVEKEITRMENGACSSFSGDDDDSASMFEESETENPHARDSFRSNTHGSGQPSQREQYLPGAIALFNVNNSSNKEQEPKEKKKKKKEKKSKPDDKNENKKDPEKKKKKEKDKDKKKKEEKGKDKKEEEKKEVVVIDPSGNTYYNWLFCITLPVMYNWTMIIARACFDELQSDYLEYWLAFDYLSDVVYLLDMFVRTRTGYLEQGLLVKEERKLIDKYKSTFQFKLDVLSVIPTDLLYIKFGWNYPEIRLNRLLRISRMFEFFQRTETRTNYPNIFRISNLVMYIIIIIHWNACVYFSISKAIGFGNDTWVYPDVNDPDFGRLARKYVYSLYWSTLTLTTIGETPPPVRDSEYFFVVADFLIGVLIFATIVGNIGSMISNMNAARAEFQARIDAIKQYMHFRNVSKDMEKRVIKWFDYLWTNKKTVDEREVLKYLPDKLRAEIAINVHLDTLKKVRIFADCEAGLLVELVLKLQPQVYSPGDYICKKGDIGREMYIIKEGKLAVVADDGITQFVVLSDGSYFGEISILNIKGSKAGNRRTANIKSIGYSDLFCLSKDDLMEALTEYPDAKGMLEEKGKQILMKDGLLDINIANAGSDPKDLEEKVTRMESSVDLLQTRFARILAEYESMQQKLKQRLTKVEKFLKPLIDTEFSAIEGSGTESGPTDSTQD
Sequence (Q28181 whole entry): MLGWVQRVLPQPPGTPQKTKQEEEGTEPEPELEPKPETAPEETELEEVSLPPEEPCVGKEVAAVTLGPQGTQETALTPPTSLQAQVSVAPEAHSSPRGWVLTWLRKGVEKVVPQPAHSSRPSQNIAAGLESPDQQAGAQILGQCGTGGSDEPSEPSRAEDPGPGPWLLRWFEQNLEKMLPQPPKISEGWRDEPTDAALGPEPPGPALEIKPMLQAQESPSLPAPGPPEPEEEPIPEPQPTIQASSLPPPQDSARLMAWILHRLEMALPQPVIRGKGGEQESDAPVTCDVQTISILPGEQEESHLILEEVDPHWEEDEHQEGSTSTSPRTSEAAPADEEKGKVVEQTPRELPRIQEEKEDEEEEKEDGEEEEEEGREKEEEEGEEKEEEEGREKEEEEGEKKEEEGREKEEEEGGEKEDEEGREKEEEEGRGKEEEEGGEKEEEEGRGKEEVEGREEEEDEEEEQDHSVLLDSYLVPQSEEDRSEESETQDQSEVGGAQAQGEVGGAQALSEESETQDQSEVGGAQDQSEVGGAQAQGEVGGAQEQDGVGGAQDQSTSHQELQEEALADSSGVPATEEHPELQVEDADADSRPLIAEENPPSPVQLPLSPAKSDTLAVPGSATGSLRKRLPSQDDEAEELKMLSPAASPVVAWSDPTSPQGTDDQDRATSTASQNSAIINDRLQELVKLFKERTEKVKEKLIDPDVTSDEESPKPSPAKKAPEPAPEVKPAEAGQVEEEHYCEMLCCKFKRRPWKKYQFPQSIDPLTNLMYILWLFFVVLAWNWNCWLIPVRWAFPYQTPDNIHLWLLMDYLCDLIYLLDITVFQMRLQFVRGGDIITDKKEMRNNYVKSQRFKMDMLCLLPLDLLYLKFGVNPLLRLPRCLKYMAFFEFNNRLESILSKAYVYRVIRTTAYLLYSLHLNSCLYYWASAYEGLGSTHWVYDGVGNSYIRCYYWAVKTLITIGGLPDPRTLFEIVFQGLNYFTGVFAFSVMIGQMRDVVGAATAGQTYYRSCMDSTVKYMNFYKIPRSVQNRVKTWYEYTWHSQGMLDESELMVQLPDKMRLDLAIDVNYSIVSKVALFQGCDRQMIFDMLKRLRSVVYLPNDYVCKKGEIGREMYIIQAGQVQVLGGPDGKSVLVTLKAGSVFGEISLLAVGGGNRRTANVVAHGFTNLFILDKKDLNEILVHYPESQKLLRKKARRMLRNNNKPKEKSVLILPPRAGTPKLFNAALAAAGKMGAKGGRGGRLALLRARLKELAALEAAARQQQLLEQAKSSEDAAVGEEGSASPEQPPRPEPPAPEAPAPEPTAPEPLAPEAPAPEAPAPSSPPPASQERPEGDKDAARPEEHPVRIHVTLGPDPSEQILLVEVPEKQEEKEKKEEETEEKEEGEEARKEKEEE
Protocol Text: Patch-clamp on inside-out patches, heterotetrameric rod CNG channels expressed in Xenopus laevis oocytes
Format: cell-based, bovine
Condition Description: ligand alone, concentration-activation relationship, Hill fit; read-out: EC50, rod CNG channels
Description: The patch pipettes were pulled from borosilicate glass tubing (outer diameter 2.0 mm, inner diameter 1.0 mm; Hilgenberg GmbH, Malsfeld, Germany). The initial resistance of the solution-filled pipettes was 0.6–1.4 MΩ. […] For studying the activation and deactivation kinetics of CNG channels, we performed fast jumps between different ligand concentrations by means of a double-barreled θ-glass pipette mounted on a piezo-driven device, which was controlled by the computer. […]
Each item that follows carries a reported EC50.
Observation Type: EC50 (µM)

Molecule	Target	Unit Symbol	Endpoint Result
Nc1nc2c(nc(Br)n2[C@@H]2O[C@@H]3COP(=O)(O)O[C@H]3[C@H]2O)c(=O)[nH]1 [8-Br-cGMP]	rod CNG channels (CNGA1:CNGB1a) (Bos taurus, UniProt Q00194+Q28181)	µM	6.61
Nc1nc2c(nc(Sc3ccc(Cl)cc3)n2[C@@H]2O[C@@H]3COP(=O)(O)O[C@H]3[C@H]2O)c(=O)[nH]1 [8-pCPT-cGMP]	rod CNG channels (CNGA1:CNGB1a) (Bos taurus, UniProt Q00194+Q28181)	µM	0.63
